tested on: RPMI-8226; test: NCI tumour cell line growth inhibition, 48 h
Active and inactive are the calls of the source. Rule as the data show it: active = GI50 up to about 1.1 µM and inactive = higher.
Give your call using only these classes: Yes for active, No for inactive

Write down the call the test reported for this compound. Item: CC(O)=C1C(=O)CCC1=O
No

Write down the call the test reported for this compound. Item: CN(C)Cc1c[nH]c2ncnc(O)c12
No

Write down the call the test reported for this compound. Item: C=C1CC2(CCOc3ccc(Cl)cc32)OC1=O (stereo unspecified)
Yes

Write down the call the test reported for this compound. Item: N#CC(C(=O)/C(=N/NC(=O)c1ccccc1O)C(C#N)c1ccc(Cl)cc1)c1ccc(Cl)cc1 (stereo unspecified)
No

Write down the call the test reported for this compound. Item: Cc1cc(-c2nc3cc(F)ccc3s2)ccc1NC(=O)C(C)N (stereo unspecified)
No

Write down the call the test reported for this compound. Item: O=c1c2cc(O)ccc2n2nnc3ccc(NCCNCCO)c1c32
No

Write down the call the test reported for this compound. Item: CCc1cc2c(c3c1CCCC3=O)CC1(C2)Cc2cc(CC)c3c(c2C1)C(=O)CCC3
No

Write down the call the test reported for this compound. Item: COc1ccc(NC(=O)CC(=O)n2nc(-c3ccccc3)c(/N=N/c3ccc(C)cc3)c2-c2ccccc2)cc1
No

Write down the call the test reported for this compound. Item: COC(=O)C1CC/C(=N/C2c3ccccc3-c3ccccc32)N1 (stereo unspecified)
No

Write down the call the test reported for this compound. Item: CSc1nc(C)c2c(n1)N(c1ccc(Cl)cc1)CC2
No

Write down the call the test reported for this compound. Item: COc1cc(/C=C2/C[C@H]3[C@@H]4CC=C5C[C@@H](O)CC[C@]5(C)[C@H]4CC[C@]3(C)NC2=O)cc(OC)c1OC
No

====

tested on: HCT-116; assay: NCI tumour cell line growth inhibition, 48 h
The source made the active and inactive calls. No stated cut-off is given here; in the data, active = GI50 up to about 1.1 µM and inactive = higher.
Give your call using only these classes: active, inactive

Write down the call the test reported for this compound. Item: CCOC(=O)C1=C(OC(OCC)C(C)[Se]c2ccccc2)CCC1 (stereo unspecified)
inactive

Write down the call the test reported for this compound. Item: O=C1/C(=C/c2cccc([N+](=O)[O-])c2)COc2ccc(Br)cc21
inactive

Write down the call the test reported for this compound. Item: c1ccc(SC(CCCCC(Sc2ccccc2)Sc2ccccc2)Sc2ccccc2)cc1
inactive

Write down the call the test reported for this compound. Item: O=c1c2cccnc2[nH]c2ccc3[nH]ncc3c12
inactive

Write down the call the test reported for this compound. Item: O=C1C(Cl)=C(Cl)C(=O)C(CCNc2nccs2)=C1Cl
inactive

Write down the call the test reported for this compound. Item: CC1=CCN(c2ccccn2)OC1c1ccccc1 (stereo unspecified)
inactive

Write down the call the test reported for this compound. Item: CCNCC(=O)O[C@]1(CC)C(=O)OCc2c1cc1n(c2=O)Cc2cc3ccccc3nc2-1
active

Write down the call the test reported for this compound. Item: NC(CCC(=O)NC(CSC(=O)N(O)c1ccc(Br)cc1)C(=O)NCC(=O)O)C(=O)O (stereo unspecified)
inactive

Write down the call the test reported for this compound. Item: CC1=C/C(=N\OCC(=O)O)CC(c2ccc(C(C)C)cc2)C1 (stereo unspecified)
inactive

Write down the call the test reported for this compound. Item: CNS(=O)(=O)c1ccc2c(c1)/C(=C1/Nc3ccccc3C1=O)C(=O)N2
inactive

Write down the call the test reported for this compound. Item: O=C1C(Cl)=C(N2CCC[C@@H]2CO)C(=O)c2c(O)ccc(O)c21
inactive

====

system: SF-295; assay: NCI tumour cell line growth inhibition, 48 h
The source made the active and inactive calls. Cut-off read from the data, not from the text of the source: active = GI50 up to about 1.1 µM and inactive = higher.
measured attribute: GI50

Give the reported value of GI50 for this record: C[C@]12CCC(O)CC1=CC[C@@H]1[C@@H]2CC[C@]2(C)C(O)[C@H](n3ccnc3)C[C@@H]12 (some centres not stated)
52 µM (inactive)

Give the reported value of GI50 for this record: NC(=O)N/N=C\c1ccccc1OCc1cccc(COc2ccccc2/C=N\NC(N)=O)n1
17.1 µM (inactive)

Give the reported value of GI50 for this record: CSc1ccc2c(cc1=O)C(NC(=O)c1ccccc1)CCc1cc(O)c(O)c(O)c1-2 (configuration not stated)
4.22 µM (inactive)

Give the reported value of GI50 for this record: O=C(C(O)c1cn(Cc2ccccc2)c2ccccc12)N1CCCCC1 (configuration not stated)
76 µM (inactive)

Give the reported value of GI50 for this record: COc1ccccc1OCC(COC(=O)Nc1ccc(C)cc1)OC(=O)Nc1ccc(C)cc1 (configuration not stated)
21.9 µM (inactive)

Give the reported value of GI50 for this record: Cn1c(NN)nc(-c2ccc([N+](=O)[O-])cc2)c(C#N)c1=O
16.1 µM (inactive)

Give the reported value of GI50 for this record: COc1ccc(OC)c(CSc2ccc(OC)c(OC)c2)c1
> 81.5 µM (inactive)

====

I'd appreciate it if you could supply GI50 values for the items below.
test system: SK-MEL-2; test: NCI tumour cell line growth inhibition, 48 h
The source made the active and inactive calls. No stated cut-off is given here; in the data, active = GI50 up to about 1.1 µM and inactive = higher.

Give the reported value of GI50 for this record: O=C1C(/N=N/c2ccc(-c3nc4ccccc4[nH]3)cc2)NC(=S)N1c1ccccc1 (stereo unspecified)
> 100 µM (inactive)

Give the reported value of GI50 for this record: COc1ccc(C2=NOC(N)(c3ccc(OC)cc3)C2)cc1 (stereo unspecified)
> 100 µM (inactive)

Give the reported value of GI50 for this record: O=[As](O)(O)c1ccc(NCc2ccccc2)cc1
> 100 µM (inactive)

Give the reported value of GI50 for this record: COc1ccc2oc(-c3ccc(OC)c(OC)c3OC)cc(=O)c2c1
22.9 µM (inactive)

Give the reported value of GI50 for this record: N#CC(=C1CCCCC1)c1nc2ccccc2o1
> 100 µM (inactive)

Give the reported value of GI50 for this record: O=C1OC2C=CC1C1(CCOC1=O)C2 (stereo unspecified)
> 100 µM (inactive)

Give the reported value of GI50 for this record: Cc1c(/C=N/NC(=S)Nc2ccc(Cl)cc2)c(=O)n(-c2ccccc2)n1C
21.6 µM (inactive)

Give the reported value of GI50 for this record: COc1cc2cc3c4c(cc(OC)c(OC)c4c2cc1OC)CCN3C(=O)OCCBr
> 100 µM (inactive)

Give the reported value of GI50 for this record: COc1cc2c(cc1OC)C(CC(=O)NN=C(C)C)NCC2 (stereo unspecified)
> 100 µM (inactive)

Give the reported value of GI50 for this record: CC1CCC(=O)C(C(=O)CC2CC(=O)NC(=O)C2)C1 (stereo unspecified)
> 100 µM (inactive)

Give the reported value of GI50 for this record: CCOC(=O)C(Cc1cccn1C(=O)OC(C)(C)C)[N+](=O)[O-] (stereo unspecified)
20.1 µM (inactive)

====

tested on: ACHN; assay: NCI tumour cell line growth inhibition, 48 h
The source made the active and inactive calls. Cut-off read from the data, not from the text of the source: active = GI50 up to about 1.1 µM and inactive = higher. Where a SMILES comes first, the peptide text is derived from it. Bridges are numbered along the chain shown (N, C = ends). [ ]: non-standard residue; d: D form. The star is where a group is joined. ξ: configuration not given here. PhAc = O=C(Cc1ccccc1)*; ξP = O=C(O)C1CCCN1
Give your call using only these classes: label 1 (active), label 0 (inactive)

Write down the call the test reported for this compound. Item: O=C1OC2C=CC1C1(CCOC1=O)C2 (stereo unspecified)
label 0

Write down the call the test reported for this compound. Item: COc1cc2cc3c4c(cc(OC)c(OC)c4c2cc1OC)CCN3C(=O)OCCBr
label 0

Write down the call the test reported for this compound. Item: COc1ccc2c(c1)CCC(OS(=O)(=O)CC13CCC(CC1=O)C3(C)C)C2=O (stereo unspecified)
label 0

Write down the call the test reported for this compound. Item: Clc1cc(Cl)cc(/N=C/C=C/Nc2cc(Cl)cc(Cl)c2)c1
label 0

Write down the call the test reported for this compound. Item: NC(=O)N/N=C\c1ccccc1OCc1cccc(COc2ccccc2/C=N\NC(N)=O)n1
label 0

Write down the call the test reported for this compound. Item: COc1ccc(/C=C/C(=O)c2ccc(Br)cc2)cc1
label 0

Write down the call the test reported for this compound. Item: CC(C)(C)c1cc(COc2cc(COc3ccc(-c4c5c(nc6c4CCc4ccc(-c7c8ccccc8nc8ccccc78)cc4-6)-c4cc(-c6c7ccccc7nc7ccccc67)ccc4CC5)cc3)cc(OCc3cc(C(C)(C)C)cc(C(C)(C)C)c3)c2)cc(C(C)(C)C)c1
label 0

Write down the call the test reported for this compound. Item: CCOC(=O)C(NC(=O)CC)(Nc1ccccc1F)C(F)(F)F (stereo unspecified)
label 0

Write down the call the test reported for this compound. Item: CC1(C)C=C(/C=N/Nc2ccc([N+](=O)[O-])cc2)C(C#N)=C(O)C1(C#N)C#N
label 0

Write down the call the test reported for this compound. Item: O=C(Cc1ccccc1)N[C@@H]1COC(=O)C2CCCN2C(=O)[C@@H]2CCCN2C1=O (stereo partly specified) (PhAc-[dS]-Pro-[ξP]; ester 1-C)
label 0

Write down the call the test reported for this compound. Item: CC(C)NCC(O)c1ccc(OCc2ccccc2)c(OCc2ccccc2)c1-c1ccccc1 (stereo unspecified)
label 0

Write down the call the test reported for this compound. Item: [O-][n+]1c2cc(CBr)c(CBr)cc2[n+]([O-])c2c(O)cccc21
label 0

Write down the call the test reported for this compound. Item: COC1C(O)C(C)OC(OC2C(Oc3cccc4c(O)c5c(=O)oc6ccc(C)c7c(=O)oc(c34)c5c67)OC(C)C(O)C2O)C1O (stereo unspecified)
label 0

Write down the call the test reported for this compound. Item: C/C1=N\[N-]C(=O)c2ccccc2C(=O)N/N=C(\C)c2cccc1n2.O=[N+]([O-])[O-].[Zn+2]
label 0

Write down the call the test reported for this compound. Item: COC(=O)[C@]1(Cc2ccc3ccccc3c2)CCCCCCN1C(=O)c1ccccc1
label 0

Write down the call the test reported for this compound. Item: COc1ccc(NC2CC(C)N(C(=O)c3ccccc3)O2)cc1 (stereo unspecified)
label 0

Write down the call the test reported for this compound. Item: Oc1ccccc1C(Sc1nc2ccccc2s1)Sc1nc2ccccc2s1
label 0

Write down the call the test reported for this compound. Item: C[N+](C)(C)CC(=O)N/N=C(/Cc1nc2ccc(Cl)cc2nc1O)C1=NS(=O)(=O)c2cc(S(N)(=O)=O)c(Cl)cc2N1
label 0

Write down the call the test reported for this compound. Item: C=CC1(CCC(Br)C(C)(C)Cl)CO1 (stereo unspecified)
label 0

Write down the call the test reported for this compound. Item: O=C(Cc1cc[n+]([O-])cc1)C(=O)Nc1cc(Cl)c(Cl)cc1Cl
label 0

Write down the call the test reported for this compound. Item: NC1CC(=O)c2sccc21 (stereo unspecified)
label 0

Write down the call the test reported for this compound. Item: C[C@]12CCC(=O)C=C1CC[C@@H]1[C@@H]2[C@@H](O)C[C@@]2(C)[C@H]1CC[C@]2(O)C(=O)COC(=O)CCC1CCCC1 [HYDROCORTISONE CYPIONATE]
label 0

Write down the call the test reported for this compound. Item: COC(=O)NC(Nc1ccc(Cl)cc1Cl)(C(F)(F)F)C(F)(F)F
label 0

Write down the call the test reported for this compound. Item: CC(O)=C1C(=O)CCC1=O
label 0

Write down the call the test reported for this compound. Item: Cc1cc2c(cc1Cl)SC(NNC(=O)c1ccccc1)=NS2(=O)=O
label 0

Write down the call the test reported for this compound. Item: Cc1cc2c(C(C)C)c(O)c(O)c(C=O)c2c(O)c1-c1c(C)cc2c(C(C)C)c(O)c(O)c(C=O)c2c1O
label 0

Write down the call the test reported for this compound. Item: C/C=C/[C@H]1O[C@@](O)([C@@H](C)[C@H](O)[C@H](C)[C@H]2OC(=O)/C(OC)=C/C(C)=C/[C@@H](C)[C@@H](O)[C@@H](CC)[C@@H](O)[C@H](C)C/C(C)=C/C=C/[C@@H]2OC)C[C@H](OC2CC(O)C(OC(N)=O)C(C)O2)[C@@H]1C (stereo partly specified)
label 1

Write down the call the test reported for this compound. Item: Cc1ccc2c3c1O[C@H]1c4nc5ccccc5cc4C[C@@]4(O)[C@@H](C2)N(CC2CC2)CC[C@]314
label 0

Write down the call the test reported for this compound. Item: Oc1ccc2ccccc2c1/N=N/c1ccc(Cl)cc1
label 0

Write down the call the test reported for this compound. Item: Cc1c(/C=N/NC(=S)Nc2ccc(Cl)cc2)c(=O)n(-c2ccccc2)n1C
label 0

Write down the call the test reported for this compound. Item: CN(C)C(=O)C(F)(F)C(c1ccccc1)C1C(=O)N(C)C(=O)N(C)C1=O (stereo unspecified)
label 0

Write down the call the test reported for this compound. Item: Cn1c(=O)c2sc3cc4c(cc3c2c2ccccc21)sc1c(=O)n(C)c2ccccc2c14
label 0

Write down the call the test reported for this compound. Item: Cc1c(C(=O)OCc2ccccc2)[n+]([O-])c2ccccc2[n+]1[O-]
label 0

Write down the call the test reported for this compound. Item: CN(C)Cc1c[nH]c2ncnc(O)c12
label 0

Write down the call the test reported for this compound. Item: O=C(/C=C/c1ccc([N+](=O)[O-])cc1)c1nc2ccccc2[nH]1
label 0

Write down the call the test reported for this compound. Item: CN(C)CCN1C(=O)c2cccc3cc([N+](=O)[O-])cc(c23)C1=O [MITONAFIDE]
label 1
